B1: F1*; the commonest letter at each place (parent)
chain: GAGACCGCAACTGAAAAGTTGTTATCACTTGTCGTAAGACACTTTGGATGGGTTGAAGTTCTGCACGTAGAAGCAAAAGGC

variants of: B1; assay: fraction ligated after 30 min (ligated reads / total reads); higher = more ligase activity; details: with F1*sub RNA substrate (template-directed ligation), 42 °C
Documented fraction ligated across a set of variants
Lab note: write the figure by itself, no unit.

Worked examples follow.
Monomer sequence	fraction ligated
GAGACCGCAACTGAAAAGTTGTTATCTCTTGTCGTAAGACAATTTGGATGGGTTGAAGTTCTGCACGTAGAAGCAAAAGGC [A27T C42A]	0.809
GAGACCGCAACTGAAAAGTTGTTATCACTTGTCGTGAGACACCTTGGATGGGTTGAAGTTCTGCACGTAGAAGCAAAAGGC [A36G T43C]	0.81
GAGACCGCAACTGAAAAGTTGTGATCACTTGTCGTAAGACACGTTGGATGGGTTGAAGTTCTGCACGTAGAAGCAAAAGGC [T23G T43G]	0.821
GAGACCGCAACTGAAAAGTTGTTATCACTTGTCACAAGACACTTTGGATGGGTTGAAGTTCTGCACGTAGAAGCAAAAGGC [G34A T35C]	0.835

INPUT: Endpoint output: fraction ligated of GAGACCGCAACTGAAAAGTTGTTATCATTTGTCGTAAGACACTTTGGATGGGTTAAAGTTCTGCACGTAGAAGCAAAAGGC [C28T G55A] . Value?
OUTPUT: 0.801

INPUT: Endpoint output: fraction ligated of GAGACCGCAACTGAAAAGTTGTTATCACTTGTCGAAAGACACTTTGCATGGGTTGAAGTTCTGCACGTAGAAGCAAAAGGC [T35A G47C] . Value?
OUTPUT: 0.221

INPUT: Endpoint output: fraction ligated of GAGACCGCAACTGAAAAGTTGTTATCACTTGACGTACGACACTTTGGATGGGTTGAAGTTCTGCACGTAGAAGCAAAAGGC [T32A A37C] . Value?
OUTPUT: 0.849

INPUT: Endpoint output: fraction ligated of GAGACCGCAACTGAAAAGTTGTGATCACTTTTCGTAAGACACTTTGGATGGGTTGAAGTTCTGCACGTAGAAGCAAAAGGC [T23G G31T] . Value?
OUTPUT: 0.868

INPUT: Endpoint output: fraction ligated of GAGACCGCAACTGAAAAGTTGTTATCACTTGTCGGAAGACACGTTGGATGGGTTGAAGTTCTGCACGTAGAAGCAAAAGGC [T35G T43G] . Value?
OUTPUT: 0.801

INPUT: Endpoint output: fraction ligated of GAGACCGCAACTGAAAAGTTGTTATCACTTGTCGAACGACACTTTGGATGGGTTGAAGTTCTGCACGTAGAAGCAAAAGGC [T35A A37C] . Value?
OUTPUT: 0.872
